Recorded kon, one value per entry.
tested_on: T1, RSV F protein (C-terminal truncated F protein secreted from a recombinant baculovirus) (respiratory syncytial virus (RSV), UniProt P03420 26-524)
T1 construct: also called F antigen; RSV F antigen
method_summary: SPR (BIAcore), F protein immobilized by EDC/NHS, Fab injected; kon and koff measured separately
Value expressed in M⁻¹ s⁻¹; do not type the unit.

[
  {
    "binder": "clone 22 (AFFF) (Fab, V domains shown, also called 4D2-7) VH: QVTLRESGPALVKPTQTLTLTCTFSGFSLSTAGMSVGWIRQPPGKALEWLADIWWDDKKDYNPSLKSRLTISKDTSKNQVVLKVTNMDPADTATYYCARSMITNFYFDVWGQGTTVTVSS VL: DIQMTQSPSTLSASVGDRVTITCSASSSVGYMHWYQQKPGKAPKLLIYDTFKLASGVPSRFSGSGSGTEFTLTISSLQPDDFATYYCFQGSFYPFTFGGGTKVEIK",
    "kon (M⁻¹ s⁻¹)": 134000
  },
  {
    "binder": "clone 3 (PFFF) (Fab, V domains shown, also called 3 (n = 3)) VH: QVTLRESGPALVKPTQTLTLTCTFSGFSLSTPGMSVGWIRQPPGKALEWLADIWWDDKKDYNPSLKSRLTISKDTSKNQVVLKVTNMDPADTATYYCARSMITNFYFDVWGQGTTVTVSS VL: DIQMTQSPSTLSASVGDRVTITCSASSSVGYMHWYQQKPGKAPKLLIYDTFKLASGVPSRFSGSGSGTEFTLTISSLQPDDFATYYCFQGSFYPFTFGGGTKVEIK",
    "kon (M⁻¹ s⁻¹)": 110000
  }
]

We now examine a further binder.
Data request: Entry clone 2 (AFFG) (Fab, V domains shown) VH: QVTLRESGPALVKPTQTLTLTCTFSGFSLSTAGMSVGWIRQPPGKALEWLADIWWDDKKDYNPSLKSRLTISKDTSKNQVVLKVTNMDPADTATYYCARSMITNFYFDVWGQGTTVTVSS VL: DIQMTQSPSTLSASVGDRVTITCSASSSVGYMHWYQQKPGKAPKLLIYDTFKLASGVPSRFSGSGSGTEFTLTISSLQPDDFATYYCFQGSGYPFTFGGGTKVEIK has what kon?
Data returned: 133000
